Exercise: state measured melting point for each of the compounds provided.

Recorded melting point, per entry:
# MOLECULE, melting point
records = [
    ("CC(C)On1c(C(C)C)nc2c(N)nc3ccccc3c21", "177 to 179 °C"),
    ("C=CCc1ccc(C2=NNC(=O)CC2)cc1O", "175 to 178 °C"),
]

Turning now to a further record.
Prompt: So what's the measured melting point for this one? `CSc1sc(-c2cccnc2)c2c1C(=O)C(=CO)C(C)(C)C2`
Completion: 154 to 156 °C

----------
EXPERIMENTAL ENDPOINT: melting point

// below: answered compounds
# COMPOUND, READOUT VALUE
records = [
    ("O=C(c1ccc([N+](=O)[O-])cc1)N1Cc2ccnn2Cc2ccccc21", "227 to 229 °C"),
    ("CON=C(C)c1ccc(N2CC(CO)OC2=O)cc1 (stereo not drawn)", "149 to 150 °C"),
]

Okay, next one:
Prompt: Look at this compound and give its reported melting point. `O=C1c2cccc3cc4ccccc4c(c23)C(=O)N1CCNCCCCCNCCN1C(=O)c2cccc3cc4ccccc4c(c23)C1=O`
Completion: 122 °C
